targetSystem: human glucagon receptor (human, UniProt P47871 26-477)
Sequence (P47871 26-477): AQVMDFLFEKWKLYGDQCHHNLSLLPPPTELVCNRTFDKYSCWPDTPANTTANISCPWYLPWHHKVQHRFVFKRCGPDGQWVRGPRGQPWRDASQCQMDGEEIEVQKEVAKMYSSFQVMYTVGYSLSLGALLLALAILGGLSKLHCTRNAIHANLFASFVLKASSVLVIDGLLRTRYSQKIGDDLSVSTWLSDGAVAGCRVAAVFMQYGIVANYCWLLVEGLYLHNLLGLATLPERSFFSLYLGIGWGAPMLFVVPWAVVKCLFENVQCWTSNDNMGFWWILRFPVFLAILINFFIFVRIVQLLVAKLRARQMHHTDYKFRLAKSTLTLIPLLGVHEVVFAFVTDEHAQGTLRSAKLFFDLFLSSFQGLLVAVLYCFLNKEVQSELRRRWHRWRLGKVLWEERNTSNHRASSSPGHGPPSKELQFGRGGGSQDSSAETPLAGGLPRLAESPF
measurementNotes: cell-based or functional assay
Bridge positions count the residues as written; N and C are the ends. Square brackets hold non-standard residues; d marks the D form. Ends that are not written are not given here. PhLac = O=C(O)[C@@H](O)Cc1ccccc1
measure: Glucagon antagonism IC50 (inhibit 0.8 nM glucagon) (nM)

INSERT INTO assay_data (binder, resultvalue) VALUES
  ('AEGTFTSEYSKYLDERRAKDFVQWLMDT-NH2 (lactam 15-19) [[A2E3, E9, E16K20(Lactam), D28]G(2-29)]', 63.2),
  ('HAEGT[PhLac]TSDYSKYLDERRAKDFVQWLMDT-NH2 (lactam 16-20; also: PLA6 linked to Thr5 by an ester bond (depsipeptide)) [[H1A2E3-O-PLA6, D9, E16K20(Lactam), D28] G(1-29)]', 9.65),
  ('AEGT[PhLac]TSDYSKYLDERRAKDFVQWLMDT-NH2 (lactam 15-19; also: PLA6 linked to Thr5 by an ester bond (depsipeptide)) [[A2E3-O-PLA6, D9, E16K20(Lactam), D28] G(2-29)]', 4.68),
  ('[PhLac]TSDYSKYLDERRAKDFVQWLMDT-NH2 (lactam 11-15) [[PLA6, E16K20(lactam), D28]G(6-29)]', 13.7),
  ('SQGT[PhLac]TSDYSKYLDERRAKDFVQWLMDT-NH2 (lactam 15-19; also: ester (depsipeptide) bond Thr5-PLA6) [[S2Q3-O-PLA6, D9, E16K20(Lactam), D28] G(2-29)]', 3.14);
